// reported inhibition at 10 µM for each item listed
Test system: A431 (epidermoid carcinoma)
assay_protocol: Antiproliferative activity (CCK-8 cell viability), A431
Type: cell-based
stated_conditions: Homo sapiens, A-431, Compound concentration: 10 μM, 72 h, read-out: Antiproliferative activity in cancerous cells, A431 (inhibition of cell growth)
Description: The antiproliferative activity of a compound was determined in the following cell lines: MDA-MB-231 (breast cancer), HepG2 (liver cancer), SW480 (colon cancer), B16F10 (malignant melanoma), A431 (epidermoid carcinoma), A549 (lung adenocarcinoma), and HeLa (cervical cancer). […] Briefly cells were seeded in a 96-well plate at a density of 2,000-5,000 cells/well. […] After incubation at 37° C. for 4 h, the absorbance value of each well was determined using a multi-well plate reader at 450 nm. […]
metric_name: inhibition at 10 µM

> print(dat)
                                   compound          metric.name  observed.result
1  CC1=C(CC(=O)O)c2cc(F)ccc2/C1=C\c1ccc(S(=O)(=O)c2ccc(F)cc2)cc1 [C40]  inhibition at 10 µM        30 to 50%
2  CC1=C(CCOC(=O)N(C)N)c2cc(F)ccc2/C1=C\c1ccc(Oc2ccc(F)cc2)cc1 [A205]  inhibition at 10 µM            < 30%
3  COc1ccc2c(c1)/C(=C\c1cccc(COc3ccccc3)c1)C(C)=C2CC(=O)O [B8]  inhibition at 10 µM            ≥ 50%
4  CCc1ccc2c(c1)C(CC(=O)O)=C(C)/C2=C/c1ccc(COc2ccc(F)cc2)cc1 [B52]  inhibition at 10 µM            ≥ 50%
5  CC1=C(CC(=O)O)c2cc(F)ccc2/C1=C\c1ccc(C2(c3ccccc3)SCCS2)cc1 [C353]  inhibition at 10 µM            ≥ 50%
6  CCc1ccc(Oc2ccc(/C=C3/C(C)=C(CC(=O)O)c4cc(Cl)ccc43)cc2)cc1 [C85]  inhibition at 10 µM            ≥ 50%
7  CC1=C(CC(=O)O)c2cc(Cl)ccc2/C1=C\c1cccc(Oc2ccc(C#N)cc2)c1 [C94]  inhibition at 10 µM            ≥ 50%
8  CC1=C(CC(=O)O)c2c(F)ccc(F)c2/C1=C/c1cccc(C(F)(F)F)c1 [E13]  inhibition at 10 µM        30 to 50%

----------
Tested on: MDA-MB-231 (breast cancer)
assay_protocol: Antiproliferative activity (CCK-8 cell viability), MDA-MB-231
Assay type: cell-based
stated_conditions: Homo sapiens, Compound concentration: 10 μM, 72 h, read-out: Antiproliferative activity in cancerous cells, MDA-MB-231 (inhibition of cell growth)
metric_name: inhibition at 10 µM

> print(dat)
                                    compound  observed.result
 1  CC1=C(CC(=O)O)c2cc(F)ccc2/C1=C\c1ccc(CN(CCc2ccccc2)c2ccccc2)cc1 [B19]            ≥ 50%
 2  CC1=C(CC(=O)O)c2cc(C)ccc2/C1=C\c1ccc(COCc2ccc(F)cc2)cc1 [B110]            ≥ 50%
 3  CC1=C(CC(=O)O)c2cc(F)ccc2/C1=C\c1ccc(C(=O)c2ccccc2)cc1 [C307]            ≥ 50%
 4  CC1=C(CC(=O)O)c2ccc(Cl)cc2/C1=C\c1ccc(Oc2ccc(F)cc2)cc1 [C67]            ≥ 50%
 5  CC1=C(CC(=O)O)c2cc(F)ccc2/C1=C/c1cccc(COc2ccc(F)cc2F)c1 [E6]        30 to 50%
 6  CC1=C(CC(=O)O)c2cc(F)ccc2/C1=C\c1cccc(COc2cccc(C(C)(C)C)c2)c1 [B21]            ≥ 50%
 7  CC1=C(CC(=O)O)c2cc(F)ccc2/C1=C\c1ccc(CCOc2ccc(Cl)cc2)cc1 [B34]            < 30%
 8  CC1=C(CC(=O)O)c2cc(F)ccc2/C1=C\c1ccc(COCc2ccc(C(F)(F)F)cc2)cc1 [B111]            ≥ 50%
 9  COc1ccc2c(c1)C(CC(=O)O)=C(C)/C2=C/c1ccc(Oc2ccc(Cl)cc2)cc1 [C72]        30 to 50%
10  CC1=C(CC(=O)O)c2ccc(F)c(F)c2/C1=C\c1cccc(Oc2ccccc2)c1 [C23]            ≥ 50%
11  CC1=C(CC(=O)O)c2c(Cl)cc(Cl)cc2/C1=C\c1ccc(Oc2ccc(F)cc2)cc1 [C87]            ≥ 50%
12  CC1=C(CC(=O)O)c2cc(F)ccc2/C1=C\c1cccc(S(=O)(=O)c2ccc(F)cc2)c1 [C44]            ≥ 50%
13  CC1=C(CC(=O)O)c2cc(F)ccc2/C1=C/c1ccc(Oc2ccc(Cl)c(Cl)c2)cc1 [E21]            ≥ 50%
14  CC1=C(CC(=O)O)c2cc(Cl)ccc2/C1=C\c1ccc(Oc2ccc(Cl)cc2)cc1 [C62]            < 30%
15  CC1=C(CC(=O)O)c2cccc(F)c2/C1=C/c1cccc(COc2ccccc2)c1 [E8]            ≥ 50%
16  CC1=C(CC(=O)O)c2cc(F)ccc2/C1=C/c1ccc(Oc2ccc(Cl)cc2F)cc1 [E24]            ≥ 50%
17  CCc1ccc2c(c1)C(CC(=O)O)=C(C)/C2=C/c1ccc(CCc2ccccc2)cc1 [B157]            < 30%
18  COc1ccc2c(c1)C(CC(=O)O)=C(C)/C2=C/c1cccc(COc2ccc(F)cc2)c1 [B24]            ≥ 50%

----------
Tested on: MDA-MB-231 (breast cancer)
assay_protocol: Antiproliferative activity (CCK-8 cell viability), MDA-MB-231
Type: cell-based
stated_conditions: Homo sapiens, Compound concentration: 10 μM, 72 h, read-out: Antiproliferative activity in cancerous cells, MDA-MB-231 (inhibition of cell growth)
metric_name: inhibition at 10 µM

> print(dat)
                      smiles.representation                study.target  observed.result
1  CC1=C(CC(=O)O)c2cc(F)ccc2/C1=C\c1ccc(Oc2ccc(Cl)cc2)cc1Oc1ccc(Cl)cc1  MDA-MB-231 (breast cancer)            ≥ 50%
2  COc1ccc(C(=O)c2ccc(/C=C3/C(C)=C(CC(=O)O)c4cc(F)ccc43)cc2)cc1  MDA-MB-231 (breast cancer)            ≥ 50%
3  COc1ccc2c(c1)C(CC(=O)O)=C(C)/C2=C/c1ccc(COCc2ccc(Cl)cc2)cc1  MDA-MB-231 (breast cancer)            < 30%
4  CCc1ccc2c(c1)C(CC(=O)O)=C(C)/C2=C/c1ccc(COCc2ccc(Cl)cc2)cc1  MDA-MB-231 (breast cancer)            ≥ 50%
5  CC(C)c1ccc(/C=C2/C(Cc3ccc(Oc4ccc(F)cc4)cc3)=C(CC(=O)O)c3cc(F)ccc32)cc1  MDA-MB-231 (breast cancer)            ≥ 50%
6  CCc1ccc2c(c1)C(CC(=O)O)=C(C)/C2=C/c1ccc(COc2ccc(C(F)(F)F)cc2)cc1  MDA-MB-231 (breast cancer)            < 30%
7  CC1=C(CC(=O)O)c2c(F)ccc(F)c2/C1=C/c1cccc(C(F)(F)F)c1  MDA-MB-231 (breast cancer)            < 30%
8  CC1=C(CC(=O)O)c2cc(F)ccc2/C1=C\c1ccc(C(=O)c2ccc(F)cc2)cc1  MDA-MB-231 (breast cancer)            ≥ 50%

----------
Tested on: B16F10 (malignant melanoma)
assay_protocol: Antiproliferative activity (CCK-8 cell viability), B16F10
Type: cell-based
stated_conditions: Mus musculus, B16-F10, Compound concentration: 10 μM, 72 h, read-out: Antiproliferative activity in cancerous cells, B16F10 (inhibition of cell growth)
Below, each of the compounds is paired with its reported inhibition at 10 µM value.
metric_name: inhibition at 10 µM

> print(dat)
                                    compound                 study.target  observed.result
 1  CC1=C(CC(=O)O)c2cc(F)ccc2/C1=C\c1ccc(Oc2ccc(Cl)cc2)cc1  B16F10 (malignant melanoma)        30 to 50%
 2  CC1=C(CC(=O)O)c2cc(Cl)c(Cl)cc2/C1=C/c1ccc(Oc2ccc(F)cc2)cc1  B16F10 (malignant melanoma)            ≥ 50%
 3  CCc1ccc2c(c1)C(CC(=O)O)=C(C)/C2=C/c1ccc(Oc2ccc(F)cc2)cc1  B16F10 (malignant melanoma)            ≥ 50%
 4  CCC1=C(CC(=O)O)c2cc(F)ccc2/C1=C\c1cccc(Oc2ccccc2)c1  B16F10 (malignant melanoma)            ≥ 50%
 5  CC1=C(CC(=O)O)c2cc(Cl)ccc2/C1=C\c1cccc(Oc2ccc(C#N)cc2)c1  B16F10 (malignant melanoma)        30 to 50%
 6  CCc1ccc2c(c1)/C(=C\c1ccc(COCc3ccc(F)cc3)cc1)C(C)=C2CC(=O)O  B16F10 (malignant melanoma)        30 to 50%
 7  CC1=C(CC(=O)O)c2cc(F)ccc2/C1=C\c1cccc(Oc2ccc(Br)cc2)c1  B16F10 (malignant melanoma)            ≥ 50%
 8  CC1=C(CC(=O)O)c2cc(F)ccc2/C1=C\c1ccc(COCc2ccc(Cl)cc2)cc1  B16F10 (malignant melanoma)            ≥ 50%
 9  COc1ccc(Oc2ccc(/C=C3/C(C)=C(CC(=O)O)c4cc(F)ccc43)cn2)cc1  B16F10 (malignant melanoma)            < 30%
10  O=C(O)CC1=C/C(=C/c2cccc(COc3ccccc3)c2)c2ccc(F)cc21  B16F10 (malignant melanoma)            ≥ 50%
11  CC1=C(CC(=O)O)c2cc(Cl)ccc2/C1=C/c1ccc(Oc2ccc(F)c(F)c2)cc1  B16F10 (malignant melanoma)            ≥ 50%
12  CC1=C(CC(=O)O)c2cc(F)ccc2/C1=C\c1ccc(Oc2ccc(Cl)cc2)cc1F  B16F10 (malignant melanoma)            ≥ 50%
13  CCc1ccc2c(c1)C(CC(=O)O)=C(C)/C2=C/c1ccc(COc2ccc(Cl)cc2)cc1  B16F10 (malignant melanoma)            ≥ 50%
14  CCCC1=C(CC(=O)O)c2cc(F)ccc2/C1=C\c1ccc(Oc2ccc(F)cc2)cc1  B16F10 (malignant melanoma)            ≥ 50%
15  COc1ccc(Oc2cccc(/C=C3/C(C)=C(CC(=O)O)c4cc(Cl)ccc43)c2)cc1  B16F10 (malignant melanoma)            < 30%
16  CC1=C(CC(=O)O)c2cc(F)ccc2/C1=C\c1ccc(Oc2ccc(Cl)cc2)cc1O  B16F10 (malignant melanoma)            ≥ 50%
17  O=C(O)CC1=C(CC2CCCC2)/C(=C/c2cccc(COc3ccccc3)c2)c2ccc(F)cc21  B16F10 (malignant melanoma)            ≥ 50%
18  COc1ccc2c(c1)C(CC(=O)O)=C(C)/C2=C/c1cccc(COc2ccc(F)cc2)c1  B16F10 (malignant melanoma)            ≥ 50%
19  CC1=C(CC(=O)O)c2cc(F)ccc2/C1=C\c1ccc(Oc2ccc(F)cc2)cc1Cl  B16F10 (malignant melanoma)            ≥ 50%
20  COc1ccc(C(=O)c2ccc(/C=C3/C(C)=C(CC(=O)O)c4cc(F)ccc43)cc2)cc1  B16F10 (malignant melanoma)            ≥ 50%
21  CC1=C(CC(=O)O)c2cc(F)ccc2/C1=C\c1ccc(CSc2ccc(F)cc2)cc1  B16F10 (malignant melanoma)            ≥ 50%
22  CCC1=C(CC(=O)O)c2cc(F)ccc2/C1=C\c1ccc(COc2ccccc2)cc1  B16F10 (malignant melanoma)            ≥ 50%
23  CC1=C(CC(=O)O)c2cc(F)ccc2/C1=C\c1cccc(-c2ccc(C(F)(F)F)cc2)c1 [D1]  B16F10 (malignant melanoma)            ≥ 50%
24  CC1=C(CC(=O)O)c2cc(F)ccc2/C1=C\c1ccc(CCOc2ccc(Cl)cc2)cc1  B16F10 (malignant melanoma)            ≥ 50%
25  COc1ccc(Oc2ccc(/C=C3\C(C)=C(CC(=O)O)c4cc(F)ccc43)cn2)cc1 [E1]  B16F10 (malignant melanoma)            < 30%
26  CC1=C(CC(=O)O)c2cc(F)ccc2/C1=C\c1ccc(COCc2ccc(F)c(F)c2)cc1  B16F10 (malignant melanoma)            ≥ 50%
27  COc1ccc2c(c1)/C(=C\c1ccc(Oc3ccc(F)cc3)cc1)C=C2CC(=O)O  B16F10 (malignant melanoma)            ≥ 50%
28  CC1=C(CC(=O)O)c2cc(F)ccc2/C1=C\c1cccc(C2(c3ccccc3)SCCS2)c1  B16F10 (malignant melanoma)            ≥ 50%
29  CC1=C(CC(=O)O)c2cc(F)ccc2/C1=C/c1ccc(F)cc1OCc1ccccc1  B16F10 (malignant melanoma)            ≥ 50%
30  CC1=C(CC(=O)O)c2cc(Cl)ccc2/C1=C\c1cccc(Oc2ccc(O)cc2)c1  B16F10 (malignant melanoma)            ≥ 50%
31  CC1=C(CC(=O)O)c2cc(F)cc(F)c2/C1=C/c1ccc(COc2ccccc2)cc1 [E2]  B16F10 (malignant melanoma)            ≥ 50%
32  CC1=C(CC(=O)O)c2c(Cl)cc(Cl)cc2/C1=C\c1ccc(Oc2ccc(F)cc2)cc1  B16F10 (malignant melanoma)            ≥ 50%
33  COc1ccc2c(c1)C(CC(=O)O)=C(C)/C2=C/c1ccc(COCc2ccc(Cl)cc2)cc1  B16F10 (malignant melanoma)            ≥ 50%
34  CC1=C(CC(=O)O)c2cc(F)ccc2/C1=C\c1ccc(COc2ccc(C(F)(F)F)cc2)cc1  B16F10 (malignant melanoma)            ≥ 50%
35  CC1=C(CC(=O)O)c2cc(F)ccc2/C1=C\c1ccc(COCc2ccc(F)c(Cl)c2)cc1  B16F10 (malignant melanoma)            ≥ 50%
36  CC1=C(CC(=O)O)c2cc(I)ccc2/C1=C\c1ccc(COCc2ccc(F)cc2)cc1  B16F10 (malignant melanoma)            ≥ 50%
